# test-system: Human Calpain 2/NS1 (Homo sapiens)
# Sequence (P17655 1-700): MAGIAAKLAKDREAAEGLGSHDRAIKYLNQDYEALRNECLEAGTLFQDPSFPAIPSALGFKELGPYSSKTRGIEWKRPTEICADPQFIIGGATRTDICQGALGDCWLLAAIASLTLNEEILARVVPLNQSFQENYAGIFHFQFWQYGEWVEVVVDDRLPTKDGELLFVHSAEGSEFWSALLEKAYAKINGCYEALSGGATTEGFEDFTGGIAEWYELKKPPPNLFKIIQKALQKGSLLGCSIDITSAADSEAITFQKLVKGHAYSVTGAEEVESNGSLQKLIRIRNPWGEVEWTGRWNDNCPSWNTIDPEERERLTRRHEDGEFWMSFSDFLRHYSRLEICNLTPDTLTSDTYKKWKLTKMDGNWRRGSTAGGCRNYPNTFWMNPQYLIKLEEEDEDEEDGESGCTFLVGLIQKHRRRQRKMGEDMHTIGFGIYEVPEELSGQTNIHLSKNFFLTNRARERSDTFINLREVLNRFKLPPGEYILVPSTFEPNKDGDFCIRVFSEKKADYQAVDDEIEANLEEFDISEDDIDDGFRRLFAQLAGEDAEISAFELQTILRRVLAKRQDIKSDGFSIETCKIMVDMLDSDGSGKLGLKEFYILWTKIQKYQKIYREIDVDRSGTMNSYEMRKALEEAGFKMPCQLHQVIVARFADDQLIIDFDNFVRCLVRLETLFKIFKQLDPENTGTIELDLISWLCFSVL
# Sequence (P04632 1-268 partner): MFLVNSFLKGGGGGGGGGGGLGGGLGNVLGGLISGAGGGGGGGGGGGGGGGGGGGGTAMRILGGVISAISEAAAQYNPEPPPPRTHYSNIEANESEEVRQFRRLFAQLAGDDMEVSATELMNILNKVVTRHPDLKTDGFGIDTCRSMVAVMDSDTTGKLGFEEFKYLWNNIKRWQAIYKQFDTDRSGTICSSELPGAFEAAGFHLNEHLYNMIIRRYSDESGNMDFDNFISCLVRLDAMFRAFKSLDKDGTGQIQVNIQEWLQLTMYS
# assay-remarks: Calpain continuous fluorescence (FRET) inhibition assay
# study-conditions: Column B; SensoLyte 520 FRET substrate, pH 7.5, 25C
pIC50: −log10 of the molar value.
property-label: pIC50

Reference set, count: 5
CC(C)[C@@H]1NC(=O)/C=C/[C@@H](N)COC(=O)[C@H](Cc2ccc(O[Si](C)(C)C(C)(C)C)cc2)NC1=O	< 5.00
CCCCCC/C=C\CC(=O)N[C@@H](Cc1ccc(O)cc1)C(=O)N[C@H](C(=O)N[C@@H]1/C=C/C(=O)N[C@@H](C(C)C)C(=O)N[C@@H](C)C(=O)OC1)C(C)C	> 5.52
CC(C)[C@@H]1NC(=O)/C=C/[C@@H](NC(=O)OC(C)(C)C)COC(=O)[C@H](Cc2ccc(O)cc2)NC1=O	< 5.00
CC(C)[C@@H]1NC(=O)/C=C/[C@@H](NC(=O)[C@H](Cc2ccccc2)NC(=O)OC(C)(C)C)COC(=O)[C@H](Cc2ccc(O)cc2)NC1=O	< 5.00
CC(C)C[C@H](NC(=O)OC(C)(C)C)C(=O)N[C@@H]1/C=C/C(=O)N[C@@H](C(C)C)C(=O)N[C@@H](Cc2ccc(O)cc2)C(=O)OC1	> 5.52

# pIC50 of CC(C)[C@@H]1NC(=O)/C=C/[C@@H](NC(=O)[C@H](C)NC(=O)OC(C)(C)C)COC(=O)[C@H](Cc2ccc(O)cc2)NC1=O = < 5.00

# pIC50 of CC(C)[C@@H]1NC(=O)/C=C/[C@@H](NC(=O)OC(C)(C)C)COC(=O)[C@H](Cc2ccccc2)NC1=O = < 5.00

# pIC50 of CC(C)[C@@H]1NC(=O)/C=C/[C@@H](NC(=O)[C@@H](NC(=O)[C@H](Cc2ccccc2)NC(=O)OC(C)(C)C)C(C)C)COC(=O)[C@H](Cc2ccc(O)cc2)NC1=O = > 5.52

# pIC50 of CC(C)[C@@H]1NC(=O)/C=C/[C@@H](NC(=O)[C@@H](NC(=O)CNC(=O)OC(C)(C)C)C(C)C)COC(=O)[C@H](Cc2ccc(O)cc2)NC1=O = 5.00 to 5.52

# pIC50 of CC(C)[C@@H]1NC(=O)/C=C/[C@@H](NC(=O)[C@@H](NC(=O)OC(C)(C)C)C(C)C)COC(=O)[C@H](Cc2ccc(O)cc2)NC1=O = > 5.52

# pIC50 of CCCCCC/C=C\CC(=O)N[C@@H](Cc1ccc(O)cc1)C(=O)N[C@H](C(=O)N[C@@H]1/C=C/C(=O)N[C@@H](C(C)C)C(=O)N[C@@H](Cc2ccc(O)cc2)C(=O)OC1)C(C)C = > 5.52
